B1: Twister Ribozyme (parent)
chain: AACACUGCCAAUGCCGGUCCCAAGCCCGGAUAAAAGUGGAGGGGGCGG

- Variants of: B1
- protocol-details: self-cleavage, relative activity (ratio to wild type); higher = more cleavage; co-transcriptional
I would appreciate it if you labelled entries true (1) when self-cleavage is 0.1 or higher, otherwise false (0).

variant-notation: C20A
assigned-class: true (1)
//
variant-notation: U18G G42A
assigned-class: false (0)
//
variant-notation: G28C A35G
assigned-class: true (1)
//
variant-notation: C20U A23G
assigned-class: true (1)
//
variant-notation: G13U C21U
assigned-class: false (0)
//
variant-notation: C8G G48C
assigned-class: true (1)
//
variant-notation: C21A G41U
assigned-class: true (1)
//
variant-notation: C9U G39U
assigned-class: true (1)
//
variant-notation: U18C A40G
assigned-class: true (1)
//
variant-notation: C8U G45U
assigned-class: true (1)
//
variant-notation: A32C G48A
assigned-class: true (1)

The reported measurements were obtained from the RNAGym collection of RNA variant scans (doi:10.7554/elife.80360).
